All figures here come from patent US20210070748A1.

# measuredTarget: BTK-WT (Homo sapiens, UniProt Q06187)
# Construct: purified from insect cells as a full-length construct containing an N-terminal 6X-His tag; His6 (N); made in house; host or cells: insect cells (baculovirus Sf21 in Method B)
# Sequence (Q06187 whole entry): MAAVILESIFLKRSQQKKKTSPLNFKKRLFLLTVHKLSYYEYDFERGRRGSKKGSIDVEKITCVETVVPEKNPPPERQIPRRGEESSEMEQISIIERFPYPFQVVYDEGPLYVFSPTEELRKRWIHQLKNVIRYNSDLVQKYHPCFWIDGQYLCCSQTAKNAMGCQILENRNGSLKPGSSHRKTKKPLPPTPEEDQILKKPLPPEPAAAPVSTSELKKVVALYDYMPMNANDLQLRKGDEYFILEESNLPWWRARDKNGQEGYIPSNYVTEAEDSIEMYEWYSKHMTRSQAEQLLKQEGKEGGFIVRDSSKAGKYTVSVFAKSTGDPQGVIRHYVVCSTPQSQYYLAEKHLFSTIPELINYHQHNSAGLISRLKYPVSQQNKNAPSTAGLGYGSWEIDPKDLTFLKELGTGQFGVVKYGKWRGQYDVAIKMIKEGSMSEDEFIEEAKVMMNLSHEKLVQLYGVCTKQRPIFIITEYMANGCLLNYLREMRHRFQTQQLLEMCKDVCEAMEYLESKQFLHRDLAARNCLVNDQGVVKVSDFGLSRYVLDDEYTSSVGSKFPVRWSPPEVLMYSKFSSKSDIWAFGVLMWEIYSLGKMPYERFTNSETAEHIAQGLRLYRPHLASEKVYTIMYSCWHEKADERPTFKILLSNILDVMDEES
# test: Btk in vitro inhibitory activity (one of Method A TR-FRET, Method B electrophoretic mobility shift, Method C radiometric filter binding)
# Assay type: biochemical
# conditionSet: Table 13, A compounds; read-out: IC50 BTK-WT
pIC50: −log10 of the molar value.
Quick reference: pIC50 of the listed items.

{"smilesStructure": "C[C@@H]1[C@H](NC(=O)c2ccc(C3CC3)c(Cl)c2)CCCN1c1cnc(C(N)=O)c(Nc2ccc(N3CCN(C)CC3)cc2)n1", "pIC50": "≥ 8.00"}
{"smilesStructure": "CN(C)C(=O)N[C@@H]1CCCN(c2cnc(C(N)=O)c(Nc3ccc(C4(C)CCN(C5CCCC5)CC4)cc3)n2)[C@@H]1CO", "pIC50": "≥ 8.00"}
{"smilesStructure": "C[C@@H]1[C@H](NC(=O)c2ccc(C3CC3)cc2F)CCCN1c1cnc(C(N)=O)c(Nc2ccc(C3(C)CCN(C4CCCC4)CC3)cc2)n1", "pIC50": "≥ 8.00"}
{"smilesStructure": "C[C@@H]1[C@H](NC(=O)c2cc3c(n2C)CC(C)(C)C3)CCCN1c1cnc(C(N)=O)c(Nc2cnn(C)c2)n1", "pIC50": "≥ 8.00"}
{"smilesStructure": "C[C@@H]1[C@H](NC(=O)c2ccc(C3CC3)cn2)CCCN1c1cnc(C(N)=O)c(Nc2ccc(N3CCN(C)CC3)cc2)n1", "pIC50": "≥ 8.00"}
{"smilesStructure": "C[C@@H]1[C@H](NC(=O)c2ccc(C3CC3)cc2F)CCCN1c1cnc(C(N)=O)c(Nc2cc(CN3CCOCC3)ns2)n1", "pIC50": "≥ 8.00"}
{"smilesStructure": "CN1CCN(Cc2ccc(Nc3nc(N4CCC[C@@H](n5ccc6cc(C7CC7)ccc6c5=O)C4)cnc3C(N)=O)cc2)CC1", "pIC50": "≥ 8.00"}
{"smilesStructure": "Cc1c(Nc2nc(N3CCC[C@@H](NC(=O)c4ccc(C5CC5)cc4)[C@H]3C)cnc2C(N)=O)cnn1C", "pIC50": "7.00 to 8.00"}
{"smilesStructure": "Cc1nn(C)cc1Nc1nc(N2CCC[C@@H](NC(=O)c3ccc(C4CC4)cc3)[C@H]2C)cnc1C(N)=O", "pIC50": "7.00 to 8.00"}
{"smilesStructure": "C[C@@H]1[C@H](NC(=O)c2ccc(C3CC3)cc2F)CCCN1c1cnc(C(N)=O)c(Nc2ccc(C3(C)CCN(C4CC4)CC3)cc2)n1", "pIC50": "≥ 8.00"}
{"smilesStructure": "C[C@@H]1[C@H](NC(=O)c2ccc(C3CC3)cc2F)CCCN1c1cnc(C(N)=O)c(Nc2ccc(CN3CCN(C)CC3)cc2)n1", "pIC50": "≥ 8.00"}
{"smilesStructure": "CN1CCN(c2ccc(Nc3nc(N4CCC[C@@H](n5ccc6cc(C7CC7)cc(F)c6c5=O)C4)cnc3C(N)=O)cc2)CC1", "pIC50": "≥ 8.00"}
{"smilesStructure": "C[C@@H]1[C@H](NC(=O)c2ccc(C3CC3)cc2F)CCCN1c1cnc(C(N)=O)c(Nc2ccc(C(=O)N3CCN(C)CC3)cc2)n1", "pIC50": "≥ 8.00"}
